Measurement record for UGT1A1 (Homo sapiens); quantity recorded: IC50.

Below, 3 compounds whose answers are already recorded.
INSERT INTO assay_data (smiles_structure, value_kind, result) VALUES
  ('COc1cc2c(c(OC)c1OC)-c1c(cc(OC)c(OC)c1OC)C[C@](C)(O)[C@@H](C)C2', 'IC50', '> 50 µM'),
  ('COc1c2c(cc3c1-c1c(cc4c(c1OC)OCO4)C[C@H](C)[C@H](C)C3)OCO2', 'IC50', '> 50 µM'),
  ('COc1cc2c(c(OC)c1OC)-c1c(cc3c(c1OC)OCO3)C[C@H](C)[C@](C)(O)[C@H]2OC(=O)c1ccccc1', 'IC50', '24 µM');

Alright, here's another compound for you.
**Q:** Recall the reported IC50 of COc1cc2c(c(OC)c1OC)-c1c(cc3c(c1OC)OCO3)C[C@H](C)[C@H](C)C2 when tested on UGT1A1 (Homo sapiens).
Sequence (P22309 26-533): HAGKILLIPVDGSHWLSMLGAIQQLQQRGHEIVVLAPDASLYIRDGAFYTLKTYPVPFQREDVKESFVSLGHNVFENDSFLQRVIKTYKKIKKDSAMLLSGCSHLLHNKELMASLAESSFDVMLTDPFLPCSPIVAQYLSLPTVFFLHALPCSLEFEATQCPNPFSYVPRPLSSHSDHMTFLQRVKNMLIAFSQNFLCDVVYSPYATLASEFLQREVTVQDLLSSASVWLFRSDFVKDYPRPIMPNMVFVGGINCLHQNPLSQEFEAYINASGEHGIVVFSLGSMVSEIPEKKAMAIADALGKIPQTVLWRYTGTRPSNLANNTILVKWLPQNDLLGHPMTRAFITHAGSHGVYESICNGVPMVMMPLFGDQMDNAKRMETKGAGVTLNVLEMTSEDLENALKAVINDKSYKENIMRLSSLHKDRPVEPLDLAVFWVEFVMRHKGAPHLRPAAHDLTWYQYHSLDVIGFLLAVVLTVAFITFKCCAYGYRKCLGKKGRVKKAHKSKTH
**A:** > 50 µM
